Data provenance is patent US20260242735A1.

Below is a list of entries, each paired with its recorded Mean % WT Binding value.
target: human CD33 T86A (human, UniProt P20138 18-364); experiment: alanine scan, flow cytometry;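 also: HEK293-T cells transiently expressing single-residue alanine mutants of CD33 (alanine swapped to serine), antibody binding read by fluorescence in duplicate, background-subtracted, expressed relative to wild-type CD33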
Sequence (P20138 18-364 T86A limits assumed): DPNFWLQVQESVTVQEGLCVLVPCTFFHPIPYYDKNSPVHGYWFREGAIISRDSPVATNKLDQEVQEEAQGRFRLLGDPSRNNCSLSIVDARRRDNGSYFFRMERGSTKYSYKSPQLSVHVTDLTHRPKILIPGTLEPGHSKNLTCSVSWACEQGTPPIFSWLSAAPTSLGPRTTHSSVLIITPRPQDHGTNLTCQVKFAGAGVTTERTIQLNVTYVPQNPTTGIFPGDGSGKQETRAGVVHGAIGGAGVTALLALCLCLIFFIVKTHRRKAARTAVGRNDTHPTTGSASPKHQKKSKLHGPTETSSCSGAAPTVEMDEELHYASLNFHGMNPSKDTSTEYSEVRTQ
All answers are understood in % WT, so give the number only.

Solved cases below.
| binder | test.result |
| --- | --- |
| Refmab #3 (antibody, V domains shown, Full-length format is human IgG1 Fc silent (PG-LALA); The alanine scan used IgG or Fab) VH: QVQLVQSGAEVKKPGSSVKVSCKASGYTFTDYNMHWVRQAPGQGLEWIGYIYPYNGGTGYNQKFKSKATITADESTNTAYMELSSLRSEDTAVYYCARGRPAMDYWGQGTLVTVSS VL: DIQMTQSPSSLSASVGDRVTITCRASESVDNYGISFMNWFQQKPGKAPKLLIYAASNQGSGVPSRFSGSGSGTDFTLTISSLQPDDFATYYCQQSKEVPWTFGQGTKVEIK | 112 |
| Refmab #1 (antibody, V domains shown, Full-length format is human IgG1 (Absolute Antibody Ab00283-10.0); The alanine scan used IgG or Fab; also called hP67.6) VH: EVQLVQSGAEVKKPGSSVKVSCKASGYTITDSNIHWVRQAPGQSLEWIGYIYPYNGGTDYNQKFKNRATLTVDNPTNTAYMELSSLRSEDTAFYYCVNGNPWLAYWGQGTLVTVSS VL: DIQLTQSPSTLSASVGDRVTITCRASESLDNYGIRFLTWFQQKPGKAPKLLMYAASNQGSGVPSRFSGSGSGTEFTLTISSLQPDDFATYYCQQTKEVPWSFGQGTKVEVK | 79.1 |
| Refmab #2 (antibody, V domains shown, Full-length format is human IgG1 Fc silent (PG-LALA); The alanine scan used IgG or Fab) VH: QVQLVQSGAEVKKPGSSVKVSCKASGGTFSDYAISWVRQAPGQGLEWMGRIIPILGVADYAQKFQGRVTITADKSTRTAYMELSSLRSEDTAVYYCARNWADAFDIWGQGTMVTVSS VL: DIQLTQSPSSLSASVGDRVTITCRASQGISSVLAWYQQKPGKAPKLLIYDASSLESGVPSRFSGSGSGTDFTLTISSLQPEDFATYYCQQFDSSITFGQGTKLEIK | 113 |

Now for a further binder.
Reported Mean % WT Binding of Refmab #4 (antibody, V domains shown, Full-length format is human IgG1 Fc silent (PG-LALA); The alanine scan used IgG or Fab) VH: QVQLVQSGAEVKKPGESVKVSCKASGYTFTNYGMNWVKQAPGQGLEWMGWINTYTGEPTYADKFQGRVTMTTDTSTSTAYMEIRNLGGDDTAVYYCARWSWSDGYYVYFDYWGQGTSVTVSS VL: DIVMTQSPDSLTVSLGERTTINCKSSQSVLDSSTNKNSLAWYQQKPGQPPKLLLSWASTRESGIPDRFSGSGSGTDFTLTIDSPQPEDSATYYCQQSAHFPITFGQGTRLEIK : 103
